Test: Solubility of DHPS and its degradation species
Settings: aqueous buffer

- compound: "Oc1ccc2nc3ccccc3nc2c1 [MHP, Monohydroxyphenazine]"
  solubility: "100 to 300 mM"

====

solubility values for the compounds below.
Assay: physchem
Conditions: aqueous buffer
assayEndpoint: solubility

- compound: "O=S(=O)(O)c1ccc2nc3cc(O)c(O)cc3nc2c1 [DHPS, 7,8-Dihydroxyphenazinesulfonic acid]"
  measured: "1400 to 1600 mM"
- compound: "Oc1cc2nc3ccccc3nc2cc1O [DHP, Dihydroxyphenazine]"
  measured: "200 to 400 mM"
